B1: 2M8U (parent)
chain: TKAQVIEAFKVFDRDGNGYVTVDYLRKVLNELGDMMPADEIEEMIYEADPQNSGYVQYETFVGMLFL

Variants of: B1
Experimental Details: folding stability dG (cDNA display proteolysis); higher = more stable
Condition Notes: PBS, room temperature
Readout Name: folding stability dG (kcal/mol)
Please state the figure in kcal/mol; there is no need to write the unit.

Task item: What folding stability dG value was documented for this variant, K10G ?
Reply: 2.97

Task item: What folding stability dG value was documented for this variant, V22L ?
Reply: 3.49

Task item: What folding stability dG value was documented for this variant, S53Q ?
Reply: 3.28

Task item: What folding stability dG value was documented for this variant, I6C ?
Reply: 3.4

Task item: What folding stability dG value was documented for this variant, A38C ?
Reply: 3.52

Task item: What folding stability dG value was documented for this variant, L67A ?
Reply: 3.98

Task item: What folding stability dG value was documented for this variant, Q57K ?
Reply: 3.2

Task item: What folding stability dG value was documented for this variant, M64A ?
Reply: 3.21

Task item: What folding stability dG value was documented for this variant, V62K ?
Reply: 1.97

Task item: What folding stability dG value was documented for this variant, N30S ?
Reply: 3.63

Task item: What folding stability dG value was documented for this variant, G63N ?
Reply: 3.97

Task item: What folding stability dG value was documented for this variant, D13E ?
Reply: 2.11

Task item: What folding stability dG value was documented for this variant, A48V ?
Reply: 3.28

Task item: What folding stability dG value was documented for this variant, L25N ?
Reply: 1.47

Task item: What folding stability dG value was documented for this variant, N30V ?
Reply: 3.38

Task item: What folding stability dG value was documented for this variant, L29G ?
Reply: 1.58

Task item: What folding stability dG value was documented for this variant, E42W ?
Reply: 3.1

Task item: What folding stability dG value was documented for this variant, E40T ?
Reply: 3.78

Task item: What folding stability dG value was documented for this variant, I45G ?
Reply: 2.2

Task item: What folding stability dG value was documented for this variant, G63A ?
Reply: 3.66

Task item: What folding stability dG value was documented for this variant, F61M ?
Reply: 2.31

Task item: What folding stability dG value was documented for this variant, L67W ?
Reply: 3.08

Task item: What folding stability dG value was documented for this variant, L32N ?
Reply: 2.53

Task item: What folding stability dG value was documented for this variant, N52E ?
Reply: 3.38

Task item: What folding stability dG value was documented for this variant, D15A ?
Reply: 3.13

Task item: What folding stability dG value was documented for this variant, Y58Q ?
Reply: 1.77

Task item: What folding stability dG value was documented for this variant, T21L ?
Reply: 3.55

Task item: What folding stability dG value was documented for this variant, F12M ?
Reply: 3.33

Task item: What folding stability dG value was documented for this variant, T60A ?
Reply: 3.63

Task item: What folding stability dG value was documented for this variant, F66Y ?
Reply: 2.71

Task item: What folding stability dG value was documented for this variant, F61W ?
Reply: 2.62

Task item: What folding stability dG value was documented for this variant, P50W ?
Reply: 3.39

Task item: What folding stability dG value was documented for this variant, V62E ?
Reply: 1.66

Task item: What folding stability dG value was documented for this variant, N17V ?
Reply: 3.27

Task item: What folding stability dG value was documented for this variant, E7M ?
Reply: 3.13

Task item: What folding stability dG value was documented for this variant, G16N ?
Reply: 3.36

Task item: What folding stability dG value was documented for this variant, D13L ?
Reply: 2.6

Task item: What folding stability dG value was documented for this variant, V22F ?
Reply: 2.52

Task item: What folding stability dG value was documented for this variant, E40L ?
Reply: 3.89

Task item: What folding stability dG value was documented for this variant, Q51R ?
Reply: 3.3

Task item: What folding stability dG value was documented for this variant, G18K ?
Reply: 2.53

Task item: What folding stability dG value was documented for this variant, V22P ?
Reply: 2.22

Task item: What folding stability dG value was documented for this variant, L29M ?
Reply: 3.58

Task item: What folding stability dG value was documented for this variant, D39E ?
Reply: 3.59

Task item: What folding stability dG value was documented for this variant, L29V ?
Reply: 3.28

Task item: What folding stability dG value was documented for this variant, V28C ?
Reply: 2.6

Task item: What folding stability dG value was documented for this variant, L67R ?
Reply: 3.81

Task item: What folding stability dG value was documented for this variant, N17Y ?
Reply: 3

Task item: What folding stability dG value was documented for this variant, V56H ?
Reply: 2.04

Task item: What folding stability dG value was documented for this variant, A8M ?
Reply: 3.76

Task item: What folding stability dG value was documented for this variant, Y46C ?
Reply: 3.46

Task item: What folding stability dG value was documented for this variant, F9D ?
Reply: 1.85

Task item: What folding stability dG value was documented for this variant, V62M ?
Reply: 2.67

Task item: What folding stability dG value was documented for this variant, G18S ?
Reply: 2.42

Task item: What folding stability dG value was documented for this variant, L67Q ?
Reply: 3.8

Task item: What folding stability dG value was documented for this variant, Q4A ?
Reply: 3.53

Task item: What folding stability dG value was documented for this variant, I6Y ?
Reply: 2.56

Task item: What folding stability dG value was documented for this variant, L65S ?
Reply: 1.7

Task item: What folding stability dG value was documented for this variant, V22W ?
Reply: 3.11

Task item: What folding stability dG value was documented for this variant, Y55M ?
Reply: 3.51

Task item: What folding stability dG value was documented for this variant, E40I ?
Reply: 3.91

Task item: What folding stability dG value was documented for this variant, G33P ?
Reply: 3.54

Task item: What folding stability dG value was documented for this variant, Y46M ?
Reply: 3.58

Task item: What folding stability dG value was documented for this variant, Y24T ?
Reply: 4.42

Task item: What folding stability dG value was documented for this variant, Q51H ?
Reply: 3.54

Task item: What folding stability dG value was documented for this variant, D39A ?
Reply: 3.7

Task item: What folding stability dG value was documented for this variant, A38G ?
Reply: 3.41

Task item: What folding stability dG value was documented for this variant, V5F ?
Reply: 3.59

Task item: What folding stability dG value was documented for this variant, L65W ?
Reply: 3.25

Task item: What folding stability dG value was documented for this variant, P37Q ?
Reply: 3.43

Task item: What folding stability dG value was documented for this variant, Q4R ?
Reply: 3.34

Task item: What folding stability dG value was documented for this variant, V28G ?
Reply: 2.32

Task item: What folding stability dG value was documented for this variant, Q51T ?
Reply: 3.56

Task item: What folding stability dG value was documented for this variant, Y55T ?
Reply: 3.11

Task item: What folding stability dG value was documented for this variant, Y19L ?
Reply: 3.26

Task item: What folding stability dG value was documented for this variant, Y46A ?
Reply: 3.52

Task item: What folding stability dG value was documented for this variant, I45W ?
Reply: 2.6

Task item: What folding stability dG value was documented for this variant, L32W ?
Reply: 3.33

Task item: What folding stability dG value was documented for this variant, D13K ?
Reply: 1.39

Task item: What folding stability dG value was documented for this variant, I41G ?
Reply: 2.29
